molecular target: T1, recombinant LILRA1 ECD (human, UniProt O75019 17-461); assay: BLI, IgG on AHC sensor, ECD in solution
T1 construct: whole canonical entry named; also called LILA1
T1 sequence (O75019 17-461 limits assumed): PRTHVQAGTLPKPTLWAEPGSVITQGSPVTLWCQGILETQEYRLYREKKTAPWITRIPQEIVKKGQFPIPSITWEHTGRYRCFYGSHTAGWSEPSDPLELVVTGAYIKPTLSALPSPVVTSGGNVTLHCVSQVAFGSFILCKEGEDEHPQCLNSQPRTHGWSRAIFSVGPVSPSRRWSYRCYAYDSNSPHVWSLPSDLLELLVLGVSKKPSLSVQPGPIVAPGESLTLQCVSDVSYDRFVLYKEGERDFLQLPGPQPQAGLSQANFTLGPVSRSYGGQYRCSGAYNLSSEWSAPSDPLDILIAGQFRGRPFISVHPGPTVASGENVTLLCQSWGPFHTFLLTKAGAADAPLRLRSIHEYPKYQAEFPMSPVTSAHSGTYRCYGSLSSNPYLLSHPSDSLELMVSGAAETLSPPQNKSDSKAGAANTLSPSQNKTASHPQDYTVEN
endpoint: log10 Kd (log10 of the value in nM)
Scale: decimal log of Kd, Kd in nM.

I have 5 binders here; please give me log10 Kd for each one.
1. A-039 (antibody, V domains shown, tested as IgG) VH: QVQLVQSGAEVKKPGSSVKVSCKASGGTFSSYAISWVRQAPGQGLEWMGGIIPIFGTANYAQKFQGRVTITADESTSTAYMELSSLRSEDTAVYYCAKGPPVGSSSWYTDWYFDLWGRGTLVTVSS VL: SYELTQPPSVSVSPGQTASITCSGDKLGDKYASWYQQKPGQSPVLVIYQDSKRPSGIPERFSGSNSGNTATLTISGTQAEDEADYYCALYGGGHTVVFGGGTKLTVL
2. A-016 (antibody, V domains shown, tested as IgG) VH: QVQLVQSGAEVKKPGSSVKVSCKASGGTFSSYAFNWVRQAPGQGLEWMGSIIPIFKTANYAQKFQGRVTITADESTSTAYMELSSLRSEDTAVYYCAKDLGTYSSGWPYYYGMDVWGQGTTVTVSS VL: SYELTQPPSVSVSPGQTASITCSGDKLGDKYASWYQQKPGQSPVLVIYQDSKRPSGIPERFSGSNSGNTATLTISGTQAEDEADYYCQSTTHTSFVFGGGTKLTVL
3. A-035 (antibody, V domains shown, tested as IgG) VH: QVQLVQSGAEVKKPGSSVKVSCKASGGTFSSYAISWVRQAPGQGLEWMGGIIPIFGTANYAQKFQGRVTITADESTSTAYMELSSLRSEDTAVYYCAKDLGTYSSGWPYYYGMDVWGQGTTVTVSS VL: SYELTQPPSVSVSPGQTASITCSGDKLGDKYASWYQQKPGQSPVLVIYQDSKRPSGIPERFSGSNSGNTATLTISGTQAEDEADYYCQLSHGTLLVFGGGTKLTVL
4. Ref062 [NGM707, cross-specific] (antibody, from another filing, V domains shown) VH: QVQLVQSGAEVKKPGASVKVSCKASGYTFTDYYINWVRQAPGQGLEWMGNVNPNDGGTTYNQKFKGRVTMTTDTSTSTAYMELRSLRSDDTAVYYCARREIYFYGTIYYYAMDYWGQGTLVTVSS VL: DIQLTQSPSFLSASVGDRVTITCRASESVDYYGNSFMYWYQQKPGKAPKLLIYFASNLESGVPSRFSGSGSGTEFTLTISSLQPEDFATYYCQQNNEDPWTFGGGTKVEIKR
5. A-006 (antibody, V domains shown, tested as IgG) VH: QVQLVQSGAEVKKPGSSVKVSCKASGGTFSQYAFSWVRQAPGQGLEWMGSIIPGFTTSNYAHKFQGRVTITADESTSTAYMELSSLRSEDTAVYYCAKDLGTYSSGWPYYYGMDVWGQGTTVTVSS VL: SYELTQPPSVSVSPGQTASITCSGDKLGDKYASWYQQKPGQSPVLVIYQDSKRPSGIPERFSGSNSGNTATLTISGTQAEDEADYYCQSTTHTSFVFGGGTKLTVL

Output line:
[3.01, 2.60, 2.87, -0.22, 2.28]
